These data points were gathered from ChEMBL document CHEMBL5230102.

test system: Staphylococcus aureus; test: Antibacterial activity against methicillin resistant Staphylococcus aureus USA300; type: functional
property_name: MIC (µg/mL)
All answers are understood in µg/mL, so give the number only.

INSERT INTO measurements (molecule, scale_unit, quantitative_result) VALUES
  ('CC(=O)C1=C(O)[C@@]2(CC=C(C)C)C[C@@H](CC=C(C)C)C(C)(C)[C@@](CC=C(C)C)(C1=O)C2=O', 'µg/mL', 1),
  ('CC(C)=CCC(=O)C1=C(O)[C@@]2(C)C[C@@H](CC=C(C)C)C(C)(C)[C@@](CC=C(C)C)(C1=O)C2=O', 'µg/mL', 4);

Ask: Answer with the recorded MIC of CC(=O)C1=C(O)[C@@]2(Cc3ccccc3)C[C@@H](CC=C(C)C)C(C)(C)[C@@](CC=C(C)C)(C1=O)C2=O only.
Reply: 0.5

====

system: Staphylococcus aureus; assay: Antibacterial activity against methicillin resistant Staphylococcus aureus USA300; format: functional
# Lookup of reported MIC keyed by entry

INSERT INTO results (molecule, result) VALUES
  ('CC(C)=CC[C@@H]1C[C@@]2(Cc3ccccc3)C(=O)[C@](C)(C(=O)C(C(=O)c3ccccc3)=C2O)C1(C)C', '> 30 µg/mL'),
  ('CC1(C)[C@H](Cc2ccccc2)C[C@@]2(Cc3ccccc3)C(=O)[C@]1(C)C(=O)C(C(=O)c1ccccc1)=C2O', '> 30 µg/mL'),
  ('CC(C)=CC[C@@H]1C[C@@]2(CC=C(C)C)C(=O)[C@](C)(C(=O)C(C(=O)c3ccccc3)=C2O)C1(C)C', '> 30 µg/mL'),
  ('CC(C)=CC[C@@]12C[C@@H](Cc3ccccc3)C(C)(C)[C@@](C)(C(=O)C(C(=O)c3ccccc3)=C1O)C2=O', '> 30 µg/mL');

Ask: Return reported MIC for target or system Staphylococcus aureus, item CC(C)=CC[C@@H]1C[C@]23C[C@@H](CC=C(C)C)C(C)(C)[C@](CC=C(C)C)(C(=O)C(C(=O)c4ccc(O)c(O)c4)=C2OC1(C)C)C3=O .
Reply: > 30 µg/mL
